- target_or_system: Bcl-2-like protein 1 (Homo sapiens) (UniProt Q07817)
- Sequence (Q07817 whole entry, looked up): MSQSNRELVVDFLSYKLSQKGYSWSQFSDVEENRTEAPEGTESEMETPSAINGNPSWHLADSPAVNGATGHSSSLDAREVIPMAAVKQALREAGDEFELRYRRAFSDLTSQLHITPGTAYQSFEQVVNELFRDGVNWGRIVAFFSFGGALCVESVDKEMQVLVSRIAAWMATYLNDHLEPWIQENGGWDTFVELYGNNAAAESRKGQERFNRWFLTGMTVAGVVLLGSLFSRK
- protocol_details: inhibitors of Bim-Bcl-XL binding, primary screen, biochemical, multiplexed, bead flow cytometry, human Bcl-XL (AID 1007)
- test_conditions: Bim peptide-Bcl-XL binding, fluorescence, at 10 µM, stronger effect = higher value
Out of some 190,000 compounds screened, about 80 (0.04%) were called active. Not all results are given here.
measured_attribute: inhibition (%)
All answers are understood in %, so give the number only.

Look over these answered cases.
>>> numeric_result("CCN(CC)CCn1c(/N=C/c2cc(Br)ccc2O)nc2ccccc21")
-11
>>> numeric_result("N#CC1=C(N)Oc2[nH]c(=S)[nH]c(=O)c2C12C(=O)Nc1ccccc12 (stereo unspecified)")
-1
>>> numeric_result("CCOc1ncccc1C(=O)N(CC)CC(=O)Nc1ccc(NC(C)=O)cc1")
-9
>>> numeric_result("Cc1cc(C)c(C(N)=O)c(Cl)n1")
-2

What measured inhibition goes with COc1cc(NC(=S)N2CCCC(C)C2)c(OC)cc1Cl (stereo unspecified) ? -7

Thanks! And NNC(=O)COc1ccc(C2SCCS2)cc1 ? 0

Thanks! And Cn1c(-c2ccc(F)cc2)cnc1SCC(=O)NNC(=O)Cc1ccccc1 ? 0

Thanks! And COc1cccc(C(=O)N2CCCC(CCC(=O)NCc3ccc(F)c(F)c3)C2)c1 (stereo unspecified) ? -1

Thanks! And O=C(CCS(=O)(=O)Cc1ccccc1)Nc1ccc2c(c1)OCCO2 ? 0

Thanks! And COc1ccccc1-n1c(C)nc2cc(C(=O)NCc3ccc4c(c3)OCO4)ccc21 ? -10

Thanks! And CC(=O)Nc1ccc(S(=O)(=O)N(C)c2ccc(OCC(=O)OCC(=O)N3CCCCC3)cc2)cc1 ? -3

###

- target_or_system: Bcl-2-like protein 1 (Homo sapiens) (UniProt Q07817)
- protocol_details: inhibitors of Bim-Bcl-XL binding, primary screen, biochemical, multiplexed, bead flow cytometry, human Bcl-XL (AID 1007)
- test_conditions: Bim peptide-Bcl-XL binding, fluorescence, at 10 µM, stronger effect = higher value
The campaign covered roughly 190,000 compounds. About 80 (0.04%) were called active. The list is a sample of the results.
measured_attribute: inhibition

Look over these answered cases.
>>> result("COc1cc(C2OC(c3cc(OC)c(OC)c(OC)c3)C(C)C2C)cc(OC)c1OC (centres undefined)")
"-1% (inactive)"
>>> result("O=C(CN(c1cccc(Cl)c1)S(=O)(=O)c1ccccc1)NN=C1CCCC1")
"-1% (inactive)"
>>> result("S=c1[nH]nc(-c2cccs2)n1/N=C/c1cccs1")
"1% (inactive)"

What measured inhibition goes with O=C(Nc1cccc(C(F)(F)F)c1)c1ccc(N2CCNCC2)c([N+](=O)[O-])c1 ? 0% (inactive)

###

- target_or_system: Bcl-2-like protein 1 (Homo sapiens) (UniProt Q07817)
- protocol_details: inhibitors of Bim-Bcl-XL binding, primary screen, biochemical, multiplexed, bead flow cytometry, human Bcl-XL (AID 1007)
- test_conditions: Bim peptide-Bcl-XL binding, fluorescence, at 10 µM, stronger effect = higher value
In all, about 190,000 compounds went through this assay and about 80 (0.04%) were called active. Only a sample is shown.
inhibition reference
All answers are understood in %, so give the number only.

Look over these answered cases.
>>> numeric_result("COc1ccc(NC(=O)CC2C(=O)OCC3CCCCN32)cc1Cl (stereo unspecified)")
-4
>>> numeric_result("Cc1ccc(C)c(CSc2nc(-c3ccco3)nc3c2c(=O)n(C)c(=O)n3C)c1")
-2
>>> numeric_result("O=c1[nH]oc(O)c1-c1ncc(C(F)(F)F)cc1Cl")
-2
>>> numeric_result("CC(C)NC(=O)C(=O)NCCCOC(C)C")
-6
>>> numeric_result("Cc1ccc(NC(=O)CSc2nc(CSc3ccc(C)cc3)cc(=O)[nH]2)cc1")
-1
>>> numeric_result("O=[N+]([O-])c1cccc(S(=O)(=O)N2CCCCCC2)c1")
-7
>>> numeric_result("CC(C)COP(=O)(c1ccc(N(C)C)cc1)C(Nc1ccccc1)c1cccnc1 (stereo unspecified)")
-15
>>> numeric_result("COc1cc(CN(C)Cc2nc3cc(C(F)(F)F)ccc3c(=O)[nH]2)ccc1OC(F)F")
0
>>> numeric_result("Cc1ccc(C)c(OCC(=O)N2CCN(C(=O)c3ccco3)CC2)c1")
-8
>>> numeric_result("CCN(CC)CC1(O)CCN(C(=O)c2ccc(Cl)c(Cl)c2)CC1")
0

Next:
What measured inhibition goes with CC(=O)c1c(Nc2ccccc2)sc(C(=O)c2ccccc2)c1C ? -6

###

- target_or_system: Bcl-2-like protein 1 (Homo sapiens)
- protocol_details: inhibitors of Bim-Bcl-XL binding, primary screen, biochemical, multiplexed, bead flow cytometry, human Bcl-XL (AID 1007)
- test_conditions: Bim peptide-Bcl-XL binding, fluorescence, at 10 µM, stronger effect = higher value
Hit rate of the full screen: of about 190,000 compounds, about 80 (0.04%) were called active. The list is a sample of the results.
measured_attribute: inhibition (%)
All answers are understood in %, so give the number only.

Look over these answered cases.
>>> numeric_result("COc1ccc(-c2[nH]ncc2CN(C)Cc2cc(C)[nH]n2)c(F)c1")
-3
>>> numeric_result("CCOC(=O)c1ccc(N2C(=O)CC(N3CCN(C(=O)c4ccccc4)CC3)C2=O)cc1 (stereo unspecified)")
-1

What measured inhibition goes with COc1ccc(CCc2nnc(CCC(=O)NCc3cnn(-c4ccccc4C)c3)o2)cc1 ? 0

Thanks! And O=C(NCc1cccs1)C1CCN(S(=O)(=O)c2ccc(Cl)cc2)CC1 ? 0

###

- target_or_system: Bcl-2-like protein 1 (Homo sapiens) (UniProt Q07817)
- protocol_details: inhibitors of Bim-Bcl-XL binding, primary screen, biochemical, multiplexed, bead flow cytometry, human Bcl-XL (AID 1007)
- test_conditions: Bim peptide-Bcl-XL binding, fluorescence, at 10 µM, stronger effect = higher value
The whole screen tested about 190,000 compounds, of which about 80 (0.04%) were called active. A selection follows.
measured_attribute: inhibition (%)
All answers are understood in %, so give the number only.

>>> numeric_result("CCOC(=O)c1c(C)n(C)c2ccc(OC)c(NS(=O)(=O)CC)c12")
-7

What measured inhibition goes with O=C(Nc1ccc2oc(-c3ccccc3F)nc2c1)c1ccco1 ? 0

Thanks! And Cc1cccc(N2CCN(c3ccc(C(N)=O)cc3[N+](=O)[O-])CC2)c1C ? 0

Thanks! And CNC(=S)N/N=C/c1cn(Cc2ccc(C)cc2)c2ccccc12 ? -5

Thanks! And O=c1c(Cl)c(NCc2ccc(F)cc2Cl)cnn1C12CC3CC(CC(C3)C1)C2 ? -8

Thanks! And CCCn1c(NC(=O)C23CC4CC(CC(O)(C4)C2)C3)nc2ccccc21 ? -2

Thanks! And O=C(c1cccc(F)c1)N1CCN(c2ccc([N+](=O)[O-])c3cccnc23)CC1 ? -4

Thanks! And FC(F)(F)c1cccc(Cc2noc(CN3CCC(N4CCCCC4)CC3)n2)c1 ? 0

Thanks! And Cc1cc[n+](-c2[nH]c(=O)sc2/C=N/NC(=O)c2ccccc2[O-])cc1C ? -7

Thanks! And Cc1ccc(S(=O)(=O)N(C)c2ccc(OCC(=O)NC3=NCCS3)cc2)cc1 ? 0

Thanks! And O=C(NCc1ccco1)C(=O)c1cn(CC(=O)N2CCCCCC2)c2ccccc12 ? -2

Thanks! And O=C(N1CCCC1)C12CC3CC(C1)CC(C(=O)N1CCCC1)(C3)C2 ? -4

Thanks! And COc1cc(Cl)c(C)cc1NC(=O)COC(=O)c1cc(SC)ccc1Cl ? -6

Thanks! And O=[N+]([O-])c1ccccc1Nc1ccc(O)cc1 ? -5

Thanks! And Cc1nnc(SCC2=C(C(=O)O)N3C(=O)C(NC(=O)Cn4nc(C)c(Cl)c4C)C3SC2)s1 (configuration not stated) ? -6

Thanks! And COC(=O)c1ccc(OCC(O)CN(CCO)CC(O)Cn2ccc3ccccc32)cc1 (configuration not stated) ? -8

Thanks! And O=[N+]([O-])c1ccc(F)cc1Oc1nc(-c2cccnc2)nc2ccccc12 ? 1

Thanks! And CCCC(C)C(=O)NCc1ccncc1 (configuration not stated) ? 0

###

- target_or_system: Bcl-2-like protein 1 (Homo sapiens)
- protocol_details: inhibitors of Bim-Bcl-XL binding, primary screen, biochemical, multiplexed, bead flow cytometry, human Bcl-XL (AID 1007)
- test_conditions: Bim peptide-Bcl-XL binding, fluorescence, at 10 µM, stronger effect = higher value
In all, about 190,000 compounds went through this assay and about 80 (0.04%) were called active. These entries were drawn from the full list.
measured_attribute: inhibition (%)
All answers are understood in %, so give the number only.

Look over these answered cases.
>>> numeric_result("CS(=O)(=O)N(CC(=O)N/N=C/c1ccccn1)c1ccc(Oc2ccccc2)cc1")
-4
>>> numeric_result("CCN(CC(=O)NC(=O)NCc1ccccc1)Cc1nc2ccccc2c(=O)[nH]1")
1
>>> numeric_result("Cc1cc(C)c[n+](-c2nc3ccccc3nc2[N-]S(=O)(=O)c2cccs2)c1")
-3
>>> numeric_result("CN(C)CCCCCN(C)Cc1cc2ccccc2o1")
-2
>>> numeric_result("COc1ccc(-c2[nH]ncc2CN(C)Cc2cccnc2)c(F)c1")
0
>>> numeric_result("Cc1ccc(-c2c(C)n([O-])c3c([n+]2=O)CCC3)cc1")
-3

What measured inhibition goes with Cc1ccc(N(C(=O)Cc2cccs2)C(C(=O)NCC2CCCO2)c2ccncc2)cc1 (configuration not stated) ? 2

Thanks! And Cc1cccc(NC(=S)NC(=O)c2ccc(Br)o2)c1 ? 0

Thanks! And Cc1ccc2c(c1)C1CN(C)CCC1N2S(=O)(=O)c1ccc(Oc2ccc([N+](=O)[O-])cc2)cc1 (configuration not stated) ? -1

Thanks! And COc1cc(C(=O)Nc2cc(C(F)(F)F)ccc2N2CCOCC2)ccc1O ? -6

Thanks! And COc1cccc2c(N/N=C/c3ccco3)cc(C)nc12 ? 0

Thanks! And COc1ccc(C(=O)COC(=O)COc2ccc(C)c(C)c2)cc1 ? -2

Thanks! And Cc1ccccc1-c1n[nH]c(=S)n1/N=C/c1ccc(-c2ccccc2Br)o1 ? -1
